// data source = PubChem BioAssay (Tox21)

- tested target: Nuclear receptor ROR-gamma (Homo sapiens)
- assay explanation: qHTS assay to identify small molecule antagonists of the retinoid-related orphan receptor gamma (ROR-gamma) signaling pathway (AID 1159521; further: nearly all actives have a fitted effect of over 50% in size)
- measurement context: Tet-on RORgamma CHO cells, RORE-luciferase, 16 h; series mostly up to 92.4 µM
Results filed as inconclusive are left out. Calls of active or inactive are those of the source. The call rests on the fitted dose curve; in most records, active means well fitted inhibition curve with a large enough effect in the repeat runs; inconclusive means weak or mixed curves, or effect the other way; inactive means no such curve, though single readings can be large or run the other way.
Outcome field: choose from true (1) = active, false (0) = inactive

[[record]]
molecule = "[Cl][Sc]([Cl])[Cl]"
tested_target = "Nuclear receptor ROR-gamma (Homo sapiens)"
group = "false (0)"


Given "C/C=C/C(=O)C1=C(C)C=CCC1(C)C" , state the outcome it received in this test.
false (0)

Test call, this molecule: "CN[C@H]1CC[C@@H](c2ccc(Cl)c(Cl)c2)c2ccc(S(N)(=O)=O)cc21"
true (1)

Please let me know the test result on file for "CCCCC/C=C\C=C\C(=O)OCC" .
true (1)

Each molecule tested received a call. Report the one for "CCC(=O)OC/C=C(\C)CCC=C(C)C" .
false (0)

# outcome recorded in this test, key = CCCC(C)C=O (stereo not given)
false (0)

----------
- assay explanation: qHTS assay to test for compound auto fluorescence at 590 nm (red) in HEK293 cells (AID 720679)
- measurement context: red autofluorescence 540/590 nm; series mostly up to 46 µM
Active and inactive are the calls of the source. The call rests on the fitted dose curve; in most records, active means well fitted curve in the direction sought with a large enough effect in the repeat runs; inconclusive means weak or mixed curves; inactive means flat fitted curve, though single readings scatter. Positions of bridges follow the written chain, without caps; N, C: chain ends. Non-standard residues stand in square brackets, D forms with d. Residues, ends and D or L forms follow the SMILES beside them. *: point of attachment. Dab(CH2SO3H) = N[C@@H](CCNCS(=O)(=O)O)C(=O)O; X3 = CC[C@@H](C)CCCCC(=O)*; Dab = NCC[C@H](N)C(=O)O
attribute measured: outcome

[[record]]
compound = "O=C(Cn1cnnn1)N[C@@H]1C(=O)N2C(C(=O)O)=C(CSc3nncs3)CS[C@H]12"
reported_value = "inactive"

[[record]]
compound = "CO[C@H]1C[C@H](O[C@H]2[C@H](C)[C@@H](O[C@@H]3O[C@H](C)C[C@H](N(C)C)[C@H]3O)[C@@H](C)C[C@]3(CO3)C(=O)[C@H](C)[C@@H](O)[C@@H](C)[C@@H](C)OC(=O)[C@@H]2C)O[C@@H](C)[C@@H]1O"
reported_value = "inactive"

[[record]]
compound = "Cc1ccc(C(C)(C)c2ccc(C)cc2)cc1"
reported_value = "inactive"

[[record]]
compound = "CC[C@H]1OC(=O)C[C@@H](O)[C@H](C)[C@@H](O[C@@H]2O[C@H](C)[C@@H](O[C@H]3C[C@@](C)(O)[C@@H](O)[C@H](C)O3)[C@H](N(C)C)[C@H]2O)[C@@H](CC=O)C[C@@H](C)C(=O)/C=C/C(C)=C/[C@@H]1CO[C@@H]1O[C@H](C)[C@@H](O)[C@@H](OC)[C@H]1OC"
reported_value = "inactive"

[[record]]
compound = "CC(C)=CCC/C(C)=C/CC/C(C)=C/CC/C(C)=C/CC1=C(C)C(=O)c2ccccc2C1=O"
reported_value = "inactive"


I am curious: what outcome value has been reported for CC1(C)S[C@@H]2[C@H](N3C(=O)C(c4ccccc4)NC3(C)C)C(=O)N2[C@H]1C(=O)O (stereo partly drawn) ?
inactive

Looking for the measured outcome of c1ccc2c(c1)OCC(CN1CCCCC1)O2 (stereo not drawn) , can you help?
inactive

Which outcome is listed for CCC(NC(C)C)C(O)c1ccc(O)c(O)c1 (stereo not drawn) ?
inactive

So what's the measured outcome for this one? "CCOc1ccc(S(=O)(=O)O)c2cccnc12"
inactive

What does the record list as outcome for CC[C@@H](C)CCCCC(=O)N[C@@H](CCNCS(=O)(=O)O)C(=O)N[C@H](C(=O)N[C@@H](CCNCS(=O)(=O)O)C(=O)N[C@H]1CCNC(=O)[C@H]([C@@H](C)O)NC(=O)[C@H](CCNCS(=O)(=O)O)NC(=O)[C@H](CCNCS(=O)(=O)O)NC(=O)[C@H](CC(C)C)NC(=O)[C@@H](CC(C)C)NC(=O)[C@H](CCNCS(=O)(=O)O)NC1=O)[C@@H](C)O (X3-[Dab(CH2SO3H)]T[Dab(CH2SO3H)][Dab][Dab(CH2SO3H)][dL]L[Dab(CH2SO3H)][Dab(CH2SO3H)]T; lactam 4-C) ?
inactive

Data request, read-out outcome, for "O=C1c2ccccc2-c2n[nH]c3cccc1c23"
inactive

Which outcome is listed for "Cc1c(O)c(=O)ccn1C" ?
inactive

Quick check: outcome of CC(CNC(=O)c1cccnc1)NC(=O)c1cccnc1 (stereo not drawn) ?
inactive

What does the record list as outcome for "CO/N=C(\C(=O)N[C@@H]1C(=O)N2C(C(=O)O)=C(C[N+]3(C)CCCC3)CS[C@H]12)c1csc(N)n1" ?
inactive

----------
- assay explanation: qHTS assay to identify small molecule antagonists of the estrogen related receptor (ERR) signaling pathway - cell viability counter screen (AID 1224818);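 further: viability measured after 17.5 h of compound exposure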
- measurement context: ERR reporter cell line viability counter screen; series mostly up to 46.1 µM
Results filed as inconclusive are left out. Active and inactive are the calls of the source. Calls come from the whole dose curve; as a rule, active = well fitted cell-killing curve with a large enough effect in the repeat runs; inconclusive = weak or mixed curves; inactive = flat fitted curve, though single readings scatter.
attribute measured: outcome

[[record]]
structure_string = "CCCCCCCCCCCCCCSCC(=O)O"
reported_value = "inactive"

[[record]]
structure_string = "N#CC(=C(\\N)Sc1ccccc1N)/C(C#N)=C(/N)Sc1ccccc1N"
reported_value = "inactive"

[[record]]
structure_string = "O=C1NC(=O)/C(=C/c2ccc(-c3ccc(F)cc3O)o2)S1"
reported_value = "inactive"

[[record]]
structure_string = "O=C(Nc1ccc2[nH]ncc2c1)C1CCC1"
reported_value = "inactive"

[[record]]
structure_string = "CC(=O)N[C@@H](Cc1c[nH]c2ccccc12)C(=O)OCc1cc(C(F)(F)F)cc(C(F)(F)F)c1"
reported_value = "inactive"


Read the next record carefully.
Tell me the measured outcome of "N#C/C(=C\c1ccc(O)c(O)c1)C(=O)NCCc1ccccc1" , please.
inactive

----------
- tested target: Luciferin 4-monooxygenase (Photinus pyralis)
- assay explanation: qHTS assay to identify small molecule inhibitors of firefly luciferase (AID 1224835); further: nearly all actives have a fitted effect of over 25% in size
- measurement context: purified P. pyralis luciferase, luminescence inhibition; series mostly up to 115 µM
Inconclusive results are not listed. Calls of active or inactive are those of the source. Calls come from the whole dose curve; as a rule, active = well fitted inhibition curve with a large enough effect in the repeat runs; inconclusive = weak or mixed curves; inactive = flat fitted curve, though single readings scatter.
Give your call using only these classes: active, inactive

[[record]]
molecule = "Cc1cc(C)c(O)c(C(C)(C)C)c1"
tested_target = "Luciferin 4-monooxygenase (Photinus pyralis)"
group = "inactive"

[[record]]
molecule = "Cc1cc(Br)ccc1NC(=O)CCl"
tested_target = "Luciferin 4-monooxygenase (Photinus pyralis)"
group = "inactive"

[[record]]
molecule = "O=C1CCC(=O)N1"
tested_target = "Luciferin 4-monooxygenase (Photinus pyralis)"
group = "inactive"

[[record]]
molecule = "CCc1cccc(C)c1N(C(=O)CS(=O)(=O)O)C(C)COC (centres undefined)"
tested_target = "Luciferin 4-monooxygenase (Photinus pyralis)"
group = "inactive"

[[record]]
molecule = "[Cl][Sc]([Cl])[Cl]"
tested_target = "Luciferin 4-monooxygenase (Photinus pyralis)"
group = "active"

[[record]]
molecule = "Cc1ccc2sc3cccc(C)c3c2c1"
tested_target = "Luciferin 4-monooxygenase (Photinus pyralis)"
group = "inactive"


Field: next molecule
Dear colleague, could you share the recorded outcome for "NC(=O)c1ccccc1Cl" when you have a moment?
inactive

----------
- assay explanation: qHTS assay to identify small molecule agonists of the estrogen receptor beta (ER-beta) signaling pathway - cell viability counter screen (AID 1259380); further: nearly all actives have a fitted effect of over 30% in size
- measurement context: ER-beta-bla HEK293T viability, CellTiter-Glo luminescence, 16 h; series mostly up to 92.4 µM
- Source text: National Center for Advancing Translational Sciences [NCATS] NIH Chemical Genomics Center [NCGC] U.S. Environmental Protection Agency [EPA] National Institutes of Environmental Health Sciences [NIEHS] National Toxicology Program [NTP] U.S. Food and Drug Administration [FDA] Estrogen receptor (ER), a nuclear hormone receptor, plays an important role in development, metabolic homeostasis and reproduction. […]
Results filed as inconclusive are left out. Active and inactive are the calls of the source. The call rests on the fitted dose curve; in most records, active means well fitted cell-killing curve with a large enough effect in the repeat runs; inconclusive means weak or mixed curves, or effect the other way; inactive means flat fitted curve, though single readings scatter.
Thanks in advance; please answer with one of these: active, inactive

Dear all, I need the recorded test outcome for "N#Cc1nc(Cl)c(Cl)c(Cl)c1Cl" , thank you.
active

Field: outcome | Entry: CCC(O)CO (centres undefined)
inactive

Identify the outcome logged in this assay for the molecule shown: "CN(C[C@@H](CC[N+]12CCC(C3CCCCC3)(CC1)CC2)c1ccc(Cl)c(Cl)c1)C(=O)c1cc(C(F)(F)F)cc(C(F)(F)F)c1"
active

Hi team, can someone confirm the assay call for c1ccc(-c2ccc(C(c3ccccc3)n3ccnc3)cc2)cc1 (centres undefined) ?
active

Record request — test call for "O=C(CCCCCCCCc1cccnc1)N1CCC(C=C(c2ccccc2)c2ccccc2)CC1"
active

Per the records of this test, what outcome belongs to "CC(O)(c1ccc(Cl)cc1)c1ccc(Cl)cc1" ?
inactive

Short answer needed: outcome of this test for "CN(C)CCOc1ccc(/C(=C(/CCCl)c2ccccc2)c2ccccc2)cc1" ?
active
